# protocol_details: chemical genetic growth profiling, strain panel (AID 1159580);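 further: tested at 20 µM; growth read once vehicle control cultures reached saturation at 30 °C; lower values mean less growth of the strain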
# experimental_parameters: S. cerevisiae deletion strains, growth OD, locus YHR142W, strain chs7
About 2,000 (36%) of roughly 5,500 compounds were called active. Another 18% or so got no clear call; they are omitted. No stated cut-off is given here; in the data, active means normalized growth mostly below about 0.91 (no sharp cut-off); inconclusive means no clear call, values can overlap the other calls; inactive means mostly above about 0.92. Some of the results follow.
Answer with one of the outcomes T (active), F (inactive)

## Task Hey, what did the test say about COc1cc2c(cc1OC)C(C)NCC2 (stereo unspecified) ?
## Result F

## Task Dear all, I need the recorded test outcome for O=c1c(O)c(-c2ccc(O)cc2)oc2ccccc12 , thank you.
## Result T

## Task // outcome(item) with item = ClC1C(Cl)C(Cl)C(Cl)C(Cl)C1Cl (stereo unspecified)
## Result T

## Task Call for entry O=c1c(O)c(-c2ccccc2)oc2ccccc12 :
## Result T

## Task Hi team, can someone confirm the assay call for CN1CCC[C@H]1c1cccnc1 ?
## Result F

## Task // outcome(item) with item = CC(C)=CCC/C(C)=C/CO
## Result F

## Task Test call, this compound: O=c1c(O)c(-c2ccccc2)oc2ccc3occc3c12
## Result T

## Task Just curious, what result did COc1cc(O)c2c(c1)C(=O)c1cc(C)cc(O)c1C2=O get here?
## Result F

## Task Which outcome was entered for the compound CC(=O)c1c(O)cc(O)cc1O in this test?
## Result F

## Task # outcome recorded in this test, key = O=C1C=CC(=O)c2ccccc21
## Result T

## Task Assay outcome for CC(C)CCCC(C)N (stereo unspecified) : what was it?
## Result F
